test: Selectivity index, ratio of IC50 for rat L6 cells to IC50 for bloodstream forms of Trypanosoma brucei rhodesiense STIB 900; type: toxicity, cell-based; conditions: read-out: Ratio IC50
Could you label it YES if measured selectivity ratio is 8 or higher, and NO otherwise?

Reference set, count: 3
- COMPOUND: "N=C(N)c1ccc(Nc2nc3cc(Cl)ccc3[nH]2)cc1"
  LABEL CLASS: "NO"
- COMPOUND: "N=C(N)c1ccc(Nc2nc3cc(C(F)(F)F)ccc3[nH]2)cc1"
  LABEL CLASS: "NO"
- COMPOUND: "N=C(N)c1ccc2[nH]c(Nc3ccccc3)nc2c1"
  LABEL CLASS: "NO"

Ask: Does N=C(NC1CCCCC1)c1ccc(Nc2nc3cc(C(=N)NC4CCCCC4)ccc3[nH]2)cc1 have a reported selectivity ratio of at least 8?
Result: YES

Ask: Same again, this time with CCC(C)NC(=N)c1ccc(Nc2nc3cc(C(=N)NC(C)CC)ccc3[nH]2)cc1 (configuration not stated)
Result: YES

Ask: Next entry: Cc1cc2[nH]c(Nc3ccc(C(=N)N)cc3)nc2cc1Cl
Result: NO

Ask: Try N=C(N)c1ccc2[nH]c(Nc3ccc(Cl)cc3)nc2c1 next.
Result: NO

Ask: Subsequent entry: CC(C)NC(=N)c1ccc(Nc2nc3cc(C(=N)NC(C)C)ccc3[nH]2)cc1
Result: YES

Ask: Moving on to the next compound: N=C(N)c1ccc(Nc2nc3ccccc3[nH]2)cc1
Result: NO

Ask: Same question, CC(C)CNC(=N)c1ccc(Nc2nc3cc(C(=N)NCC(C)C)ccc3[nH]2)cc1 this time
Result: YES

Ask: N=C(N)c1ccc(Nc2nc3cc(C(=N)N)ccc3[nH]2)cc1 , same question.
Result: YES

Ask: // same read-out, input: N=C(N)c1ccc2[nH]c(Nc3ccc(Cl)c(Cl)c3)nc2c1
Result: NO

###

test: Selectivity index, ratio of IC50 for rat L6 cells to IC50 for chloroquine and pyrimethamine resistant Plasmodium falciparum K1 infected in human erythrocytes; type: toxicity, cell-based; conditions: read-out: Ratio IC50
MEASURED PROPERTY: selectivity ratio
Response field accepts a number only; no unit should be typed.

Completed entries (count: 8):
- MOLECULE: "N=C(N)c1ccc2[nH]c(Nc3ccccc3)nc2c1"
  MEASURED RESULT: 43
- MOLECULE: "N=C(N)c1ccc2[nH]c(Nc3ccc(Cl)cc3)nc2c1"
  MEASURED RESULT: 60
- MOLECULE: "CC(C)CNC(=N)c1ccc(Nc2nc3cc(C(=N)NCC(C)C)ccc3[nH]2)cc1"
  MEASURED RESULT: 925
- MOLECULE: "N=C(N)c1ccc(Nc2nc3ccccc3[nH]2)cc1"
  MEASURED RESULT: 37
- MOLECULE: "N=C(NC1CCCCC1)c1ccc(Nc2nc3cc(C(=N)NC4CCCCC4)ccc3[nH]2)cc1"
  MEASURED RESULT: 1390
- MOLECULE: "N=C(N)c1ccc(Nc2nc3cc(C(F)(F)F)ccc3[nH]2)cc1"
  MEASURED RESULT: 49
- MOLECULE: "N=C(N)c1ccc2[nH]c(Nc3ccc(Cl)c(Cl)c3)nc2c1"
  MEASURED RESULT: 280
- MOLECULE: "N=C(N)c1ccc(Nc2nc3cc(C(=N)N)ccc3[nH]2)cc1"
  MEASURED RESULT: 1560

Ask: Given the entry CC(C)NC(=N)c1ccc(Nc2nc3cc(C(=N)NC(C)C)ccc3[nH]2)cc1 , report its measured selectivity ratio.
Result: 660

Ask: Same question, CCC(C)NC(=N)c1ccc(Nc2nc3cc(C(=N)NC(C)CC)ccc3[nH]2)cc1 (configuration not stated) this time
Result: 320

Ask: Entry N=C(N)c1ccc(Nc2nc3cc(Cl)ccc3[nH]2)cc1 please
Result: 53

Ask: And for Cc1cc2[nH]c(Nc3ccc(C(=N)N)cc3)nc2cc1Cl ?
Result: 29
